Biological target: His6-BldC (Streptomyces coelicolor) (UniProt A0A0M7QSG5)
Test: fluorescence polarization
Settings: FP: 25 mM Tris pH 7.5, 150 mM NaCl, 1 nM F-DNA, 25 C; footprinting: 10 mM Tris HCl pH 7.8, 150 mM NaCl, 2 mM DTT, 1 ug poly(dI-dC), 10% glycerol (none for …)
pKd: −log10 of the molar value.
Recorded pKd values for a group of sequences are listed next.
parameter measured: pKd

>>> measurement("TTCAATTCGTACAATTCGTACA / AATGTACGAATTGTACGAATTG [whiI opt bp 8 and 17 to T]")
7.30
>>> measurement("TTCAATTCGGACAATTCGGACA / AATGTCCGAATTGTCCGAATTG [whiI opt 22mer (FP)]")
7.74
>>> measurement("TTCAATTCGCACAATTCGCACA / AATGTGCGAATTGTGCGAATTG [whiI opt bp 8 and 17 to C]")
6.94
